# Tested on: U‐251 MG cells
# RUN DESCRIPTION: MTT cell viability assay, U‐251 MG glioblastoma cells, 5 days treatment
# Type: cell-based, human
# CONDITIONS: 5 days treatment, 100–0 µM
// returns false (0) unless IC50 is strictly below 20 µM, in which case true (1)

Observe how each entry below is paired with its result.
| MOLECULE | ASSAY SYSTEM | CAT |
| --- | --- | --- |
| O=c1cc(-c2cc(C(F)(F)F)cc(C(F)(F)F)c2)[nH]c2cc(-c3ccc(Cl)cc3)nn12 [Compound 8] | U‐251 MG cells | true (1) |
| O=c1cc(-c2cc(C(F)(F)F)cc(C(F)(F)F)c2)[nH]c2cc(-c3cccc([N+](=O)[O-])c3)nn12 [Compound 23] | U‐251 MG cells | false (0) |
| CC(C)c1cc2[nH]c(-c3ccccc3)cc(=O)n2n1 [Compound 2] | U‐251 MG cells | false (0) |

Is 20 µM strictly greater than the molecule's reported IC50? molecule: O=c1cc(-c2cc(C(F)(F)F)cc(C(F)(F)F)c2)[nH]c2cc(-c3cccc(Br)c3)nn12 [Compound 21] true (1)

Dear colleague, could you confirm whether IC50 of O=c1cc(-c2cc(C(F)(F)F)cc(C(F)(F)F)c2)[nH]c2cc(-c3ccc(Br)cc3)nn12 [Compound 7] falls below 20 µM? Thanks. false (0)

Consider the molecule O=c1cc(-c2cc(C(F)(F)F)cc(C(F)(F)F)c2)[nH]c2cc(-c3ccc(C(F)(F)F)cc3)nn12 [Compound 9] . Is its IC50 strictly less than 20 µM? false (0)

Quick check: IC50 of CC(C)c1cc2[nH]c(-c3cc(C(F)(F)F)cc(C(F)(F)F)c3)cc(=O)n2n1 [Compound 4] under 20 µM? true (1)

Input O=c1cc(-c2cc(C(F)(F)F)cc(C(F)(F)F)c2)[nH]c2cc(-c3ccccc3Br)nn12 [Compound 22] ; condition: IC50 strictly below 20 µM. Does it hold? true (1)

====

# Test system: U‐251 MG and HEK293 cells
# RUN DESCRIPTION: Statistical comparison of dose–response in U‐251 MG versus HEK293 (selectivity, HIT criteria)
# Type: cell-based, human
# CONDITIONS: HEK293 IC50 higher than U‐251 MG IC50, U‐251 MG IC50 below 50 µM
QUANTITY MEASURED: Selectivity for cancer cells with IC50 < 50 [µM]‐Yes/No

For orientation, consider the following solved cases.
| CHEMICAL STRUCTURE | EXPERIMENTAL VALUE |
| --- | --- |
| O=c1cc(-c2cc(C(F)(F)F)cc(C(F)(F)F)c2)[nH]c2cc(-c3ccccc3Br)nn12 | Yes |
| O=c1cc(-c2cc(C(F)(F)F)cc(C(F)(F)F)c2)[nH]c2cc(-c3ccc(C(F)(F)F)cc3)nn12 | Yes |
| Cc1cc(=O)n2nc(C(C)C)cc2[nH]1 | No |
| O=c1cc(-c2cc(C(F)(F)F)cc(C(F)(F)F)c2)[nH]c2cc(-c3cccc(Br)c3)nn12 | Yes |
| O=c1cc(-c2cc(C(F)(F)F)cc(C(F)(F)F)c2)[nH]c2cc(-c3ccccc3)nn12 | Yes |
| CC(C)c1cc2[nH]c(-c3cc(C(F)(F)F)cc(C(F)(F)F)c3)cc(=O)n2n1 | No |
| O=c1cc(-c2cc(C(F)(F)F)cc(C(F)(F)F)c2)[nH]c2cc(-c3ccc(F)cc3)nn12 | No |
| O=c1cc(-c2ccccc2)[nH]c2cc(-c3ccccc3)nn12 | No |

Value sought for every listed compound: Selectivity for cancer cells with IC50 < 50 [µM]‐Yes/No.
1. CC(C)c1cc2[nH]c(-c3ccccc3)cc(=O)n2n1
2. O=c1cc(-c2cc(C(F)(F)F)cc(C(F)(F)F)c2)[nH]c2cc(-c3cccc([N+](=O)[O-])c3)nn12
3. COc1ccc(-c2cc3[nH]c(-c4cc(C(F)(F)F)cc(C(F)(F)F)c4)cc(=O)n3n2)cc1
4. O=c1cc(-c2cc(C(F)(F)F)cc(C(F)(F)F)c2)[nH]c2cc(-c3ccc(Br)cc3)nn12

["No", "Yes", "No", "Yes"]
